Where do the numbers come from? From ChEMBL document CHEMBL1201862.

Molecular target: Endoribonuclease toxin MazF (Escherichia coli K-12)
Sequence (P0AE70 whole entry): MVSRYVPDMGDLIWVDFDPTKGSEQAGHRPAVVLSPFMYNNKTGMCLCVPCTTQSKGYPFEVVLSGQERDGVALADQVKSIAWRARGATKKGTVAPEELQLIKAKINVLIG
Assay: fluorescent RNA oligo signal without MazF, dose response, counter-screen for MazEF activator project, biochemical, fluorescence, single-stranded RNase substrate (AID 588502)
Assay type: functional
Active and inactive are the calls of the source.
VALUE_TYPE: EC50

>  <SMILES_STR>
CCN(CC)S(=O)(=O)c1ccc(C(=O)/C=C/c2ccc(-c3ccc([N+](=O)[O-])cc3)o2)cc1

>  <SYSTEM_TESTED>
Endoribonuclease toxin MazF (Escherichia coli K-12)

>  <VALUE_TYPE>
EC50

>  <OBSERVED_VALUE>
> 99 µM (inactive)

$$$$
>  <SMILES_STR>
Cn1cccc1/C=C1\CCC/C(=C\c2cccn2C)C1=O

>  <SYSTEM_TESTED>
Endoribonuclease toxin MazF (Escherichia coli K-12)

>  <VALUE_TYPE>
EC50

>  <OBSERVED_VALUE>
23.9 µM (inactive)

$$$$
>  <SMILES_STR>
Cn1c(=O)c2[nH]c(-c3ccccc3)c(O)c2n(C)c1=O

>  <SYSTEM_TESTED>
Endoribonuclease toxin MazF (Escherichia coli K-12)

>  <VALUE_TYPE>
EC50

>  <OBSERVED_VALUE>
23.3 µM (inactive)

$$$$

====

Cytochrome P450 2C9 (Homo sapiens, UniProt P11712) measurements of AC50, listed per entry.
Sequence (P11712 whole entry): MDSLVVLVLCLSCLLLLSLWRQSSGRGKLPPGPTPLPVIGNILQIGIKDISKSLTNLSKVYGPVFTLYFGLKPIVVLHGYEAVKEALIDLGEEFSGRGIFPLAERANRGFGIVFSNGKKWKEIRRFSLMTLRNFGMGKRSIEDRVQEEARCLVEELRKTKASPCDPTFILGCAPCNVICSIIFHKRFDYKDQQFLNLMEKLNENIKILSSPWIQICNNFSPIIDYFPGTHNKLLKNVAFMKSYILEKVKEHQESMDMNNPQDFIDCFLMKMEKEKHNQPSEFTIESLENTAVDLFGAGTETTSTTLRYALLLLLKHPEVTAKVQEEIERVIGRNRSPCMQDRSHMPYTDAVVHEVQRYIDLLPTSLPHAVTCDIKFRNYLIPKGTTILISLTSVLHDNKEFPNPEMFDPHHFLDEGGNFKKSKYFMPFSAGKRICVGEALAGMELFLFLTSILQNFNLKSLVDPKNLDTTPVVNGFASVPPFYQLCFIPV

>  <SMILES_STR>
Cc1ccc(OC(=O)c2oc3ccc(F)cc3c2C)c(C)c1

>  <SYSTEM_TESTED>
Cytochrome P450 2C9 (Homo sapiens, UniProt P11712)

>  <AC50>
10 µM (inconclusive)

$$$$
>  <SMILES_STR>
FC(F)(F)c1ccccc1-c1ccc2ncnc(NCc3cccs3)c2c1

>  <SYSTEM_TESTED>
Cytochrome P450 2C9 (Homo sapiens, UniProt P11712)

>  <AC50>
1 µM (inconclusive)

$$$$
>  <SMILES_STR>
O=c1cnc2cnc(Nc3ccccc3)nc2n1CCc1ccccc1

>  <SYSTEM_TESTED>
Cytochrome P450 2C9 (Homo sapiens, UniProt P11712)

>  <AC50>
0.251 µM (inconclusive)

$$$$
>  <SMILES_STR>
N/C(CSS(=O)(=O)O)=N\[C@@H]1C[C@H]2CC[C@@H]1C2

>  <SYSTEM_TESTED>
Cytochrome P450 2C9 (Homo sapiens, UniProt P11712)

>  <AC50>
7.94 µM (inconclusive)

$$$$

====

Target: Ubiquitin-conjugating enzyme E2 N (Homo sapiens)
Sequence (P61088 whole entry): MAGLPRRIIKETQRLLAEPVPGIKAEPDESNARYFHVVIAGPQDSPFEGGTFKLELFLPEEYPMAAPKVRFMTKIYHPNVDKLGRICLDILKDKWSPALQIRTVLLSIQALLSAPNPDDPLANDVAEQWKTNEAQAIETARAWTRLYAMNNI
Assay type: functional
Activity calls are given as the source filed them.
IC50: recorded values
VALUE_TYPE: IC50

>  <COMPOUND>
COc1cc(/C=N/N=C(N)N)ccc1OCc1ccc(Cl)cc1

>  <SYSTEM_TESTED>
Ubiquitin-conjugating enzyme E2 N (Homo sapiens)

>  <VALUE_TYPE>
IC50

>  <OBSERVED_VALUE>
13.2 µM (active)

$$$$
>  <COMPOUND>
Cc1ccc(C(C(=O)NCC2CCCO2)N(C(=O)c2snc(C(N)=O)c2N)c2ccc(C(C)C)cc2)o1 (stereo unspecified)

>  <SYSTEM_TESTED>
Ubiquitin-conjugating enzyme E2 N (Homo sapiens)

>  <VALUE_TYPE>
IC50

>  <OBSERVED_VALUE>
> 20 µM (inactive)

$$$$
>  <COMPOUND>
O=C(CSCc1ccc([N+](=O)[O-])cc1)N/N=C/c1cccnc1

>  <SYSTEM_TESTED>
Ubiquitin-conjugating enzyme E2 N (Homo sapiens)

>  <VALUE_TYPE>
IC50

>  <OBSERVED_VALUE>
8.26 µM (active)

$$$$
>  <COMPOUND>
Cc1nc(N)sc1C(=O)OCC(C)C

>  <SYSTEM_TESTED>
Ubiquitin-conjugating enzyme E2 N (Homo sapiens)

>  <VALUE_TYPE>
IC50

>  <OBSERVED_VALUE>
> 20 µM (inactive)

$$$$
>  <COMPOUND>
c1ccc2c(C[C@@H]3CNCCN3CCCCC3CCCCC3)cccc2c1

>  <SYSTEM_TESTED>
Ubiquitin-conjugating enzyme E2 N (Homo sapiens)

>  <VALUE_TYPE>
IC50

>  <OBSERVED_VALUE>
> 20 µM (inactive)

$$$$
>  <COMPOUND>
COc1ccc(-n2nc(C(=O)NCc3cc(OC)ccc3OC)c3c4ccccc4n(C)c3c2=O)cc1

>  <SYSTEM_TESTED>
Ubiquitin-conjugating enzyme E2 N (Homo sapiens);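 also: Dose-response confirmation in a TR-FRET assay detecting UBC13-driven polyubiquitin chain formation, inhibition measured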

>  <VALUE_TYPE>
IC50

>  <OBSERVED_VALUE>
> 20 µM (inactive)

$$$$

====

Molecular target: Prothrombin (Homo sapiens, UniProt P00734)
Assay: Thrombin 1536 HTS Dose Response Confirmation. [Related pubchem assays: 1046 (Thrombin 1536 HTS; hits were confirmed in this assay)]
Format: functional
Calls of active or inactive are those of the source.
Each item that follows carries a reported IC50.

>  <SMILES_STR>
COc1cccc(NC(=S)N(CCCN2CCCC2)Cc2ccco2)c1

>  <IC50>
> 50000 nM (inconclusive)

$$$$
>  <SMILES_STR>
COc1ccc(C(=O)n2nc(-c3ccccc3)nc2SC)cc1

>  <IC50>
913 nM (active)

$$$$
>  <SMILES_STR>
Cn1cc(C(=O)c2ccc(Cl)cc2Cl)cc1C(=O)NN=C(N)COc1ccc(F)cc1

>  <IC50>
2130 nM (active)

$$$$
>  <SMILES_STR>
COCC(=O)n1nc(-c2ccc(C)cc2)nc1NCc1ccc(F)cc1

>  <IC50>
502 nM (active)

$$$$
>  <SMILES_STR>
CC(=O)n1nc(-c2ccc(C)cc2)nc1NCc1ccc(F)cc1

>  <IC50>
373 nM (active)

$$$$

====

Reported AC50 values for a set of compounds
Target: Heat shock protein HSP 90-alpha (Homo sapiens)
Assay type: functional, organism-based
Calls of active or inactive are those of the source.
VALUE_TYPE: AC50

>  <SMILES_STR>
COc1ccc(-c2nn(-c3ccccc3)cc2C(=O)N2CCN(S(=O)(=O)c3ccccc3[N+](=O)[O-])CC2)cc1

>  <OBSERVED_VALUE>
3.97 µM (active)

$$$$
>  <SMILES_STR>
CC(=O)N(C(C)=O)N1C(=O)/C(=C/c2ccc(Cl)cc2)SC1=S

>  <OBSERVED_VALUE>
1.34 µM (active)

$$$$
>  <SMILES_STR>
Cc1ccccc1Oc1cc(-n2ncc(Cl)c(Cl)c2=O)ncn1

>  <OBSERVED_VALUE>
3.94 µM (active)

$$$$
>  <SMILES_STR>
CC(=NNC(=S)N1CCN(C2CCCCCC2)CC1)c1ccccn1

>  <OBSERVED_VALUE>
3.35 µM (active)

$$$$
>  <SMILES_STR>
O=[N+]([O-])/C=C/c1c(Cl)cccc1Cl

>  <OBSERVED_VALUE>
1.12 µM (active)

$$$$
>  <SMILES_STR>
CC[C@H](C)/C=C/C1=CC2=C(Cl)C(=O)[C@@]3(C)OC(=O)C(C(=O)[C@H](C)[C@@H](C)O)=C3C2=CO1

>  <OBSERVED_VALUE>
7.41 µM (active)

$$$$

====

This listing pairs compounds with measured IC50.
Molecular target: Caspase-3 (Homo sapiens, UniProt P42574);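 also: Dose-response selectivity test against caspase-3 for candidate inhibitors of sentrin-specific proteases (SENPs)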
Sequence (P42574 whole entry): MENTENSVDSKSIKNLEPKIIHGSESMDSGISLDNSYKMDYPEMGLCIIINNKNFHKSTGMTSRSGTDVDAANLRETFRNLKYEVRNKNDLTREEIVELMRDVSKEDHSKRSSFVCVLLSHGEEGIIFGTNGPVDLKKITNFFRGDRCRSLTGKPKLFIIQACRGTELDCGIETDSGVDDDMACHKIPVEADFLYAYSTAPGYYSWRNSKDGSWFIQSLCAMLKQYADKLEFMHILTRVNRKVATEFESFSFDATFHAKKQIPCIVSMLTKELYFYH
Format: functional
Activity calls are given as the source filed them.

>  <SMILES_STR>
CCOC(=O)/C(C#N)=C/c1ccc(N2CCCCC2)cc1

>  <IC50>
23.4 µM (active)

$$$$
>  <SMILES_STR>
Brc1c(-c2ccccc2)nc2n1Cc1ccccc1-2

>  <IC50>
15 µM (active)

$$$$
>  <SMILES_STR>
Clc1cccc(-c2ccc(-c3nc4ccccn4c3NCc3ccccc3)cc2)c1

>  <IC50>
12.9 µM (active)

$$$$

====

Molecular target: Microphthalmia-associated transcription factor (Homo sapiens)
Sequence (O75030 whole entry): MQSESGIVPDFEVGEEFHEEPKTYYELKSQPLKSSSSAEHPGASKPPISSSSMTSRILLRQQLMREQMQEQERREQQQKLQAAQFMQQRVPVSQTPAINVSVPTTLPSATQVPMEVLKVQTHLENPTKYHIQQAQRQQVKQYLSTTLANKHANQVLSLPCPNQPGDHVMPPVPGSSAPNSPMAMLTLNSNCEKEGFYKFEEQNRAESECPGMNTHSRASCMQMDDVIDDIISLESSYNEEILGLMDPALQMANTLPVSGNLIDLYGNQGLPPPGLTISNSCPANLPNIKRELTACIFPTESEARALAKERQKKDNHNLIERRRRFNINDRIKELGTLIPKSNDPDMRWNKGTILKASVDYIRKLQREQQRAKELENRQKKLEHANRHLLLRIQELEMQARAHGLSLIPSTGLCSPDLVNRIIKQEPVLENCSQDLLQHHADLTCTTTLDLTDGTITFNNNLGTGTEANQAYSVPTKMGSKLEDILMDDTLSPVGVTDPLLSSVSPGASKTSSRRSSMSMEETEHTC
Assay: TRPM1 promoter luciferase signal decrease, dose response, MITF inhibitor project, cell-based, SK-MEL-5, cherry-picked, set 3 (AID 493073);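 also: SK-MEL-5 melanoma cells with luciferase driven by the MITF target TRPM1 promoter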
Assay type: functional
Activity calls are given as the source filed them.
The following compounds are shown together with reported AC50 values.

>  <SMILES_STR>
CN1CCN(c2ccc(NC(=O)c3ccc([N+](=O)[O-])o3)cc2Cl)CC1

>  <AC50>
9.02 µM (active)

$$$$
>  <SMILES_STR>
O=C(Nc1cccc(S(=O)(=O)N2CCCCC2)c1)c1ccc([N+](=O)[O-])o1

>  <AC50>
11.9 µM (active)

$$$$
>  <SMILES_STR>
O=C(N/N=C/c1cccc(Oc2ccc([N+](=O)[O-])cc2[N+](=O)[O-])c1)c1cncc(Br)c1

>  <AC50>
243 µM (active)

$$$$
